Tested on: NOMO1
test: cell viability relative to DMSO control; higher = less cytotoxic
stated-conditions: RPMI 5 mM glucose + 10% dialyzed FBS; 48 h; 0.00234 µM

compound: NC1=NC(=O)N2CC12 (stereo unspecified)
cell viability (%): 76.1
--
compound: CC(C(C)N1CC(=O)NC(=O)C1)N1CC(=O)NC(=O)C1 (stereo unspecified)
cell viability (%): 121
--
compound: CN(C)c1nc(Cc2ccc(NC(=O)c3ccc(C(F)(F)F)cc3)cc2)nc(N(C)C)c1CC(=O)O
cell viability (%): 95.2
--
compound: OC(=O)\C1=C\N(C2CC2)C3=CC(=C(F)C=C3C1=O)N4CCNCC4
cell viability (%): 132
--
compound: C[S+](=O)([O-])Oc1ccc2c(NC(N)=O)c(C(=O)c3ccc(Cl)cc3Cl)oc2c1
cell viability (%): 111
--
compound: C[C@H](NC(=O)Cc1cc(F)cc(F)c1)C(=O)N[C@H](C(=O)OC(C)(C)C)c1ccccc1
cell viability (%): 85.3
--
compound: Cc1nc(-c2ccc(OCC(C)C)c(C#N)c2)sc1C(=O)O
cell viability (%): 123
--
compound: O=C(/C=C/c1ccc(/C=C/C(=O)Nc2ccc(C3=NCCN3)cc2)cc1)Nc1ccc(C2=NCCN2)cc1
cell viability (%): 107
--
compound: CC(C)(N)c1ccc(-c2nc3ccccc3nc2-c2ccccc2)cc1
cell viability (%): 106
--
compound: CCNC(=O)Nc1ccc(Oc2ncnc(N)c2/C=N/OC)cc1Cl
cell viability (%): 113
--
compound: C[C@]1(O)CC(C1)C2=NC(=C3[N]2C=CN=C3N)C4=CC5=C(C=C4)C=CC(=N5)C6=CC=CC=C6 (stereo unspecified)
cell viability (%): 73.9
--
compound: C[C@]12CC[C@H]3[C@@H](CC(=C)\C4=C\C(=O)\C=C/[C@]34C)[C@@H]1CCC2=O
cell viability (%): 100
--
compound: C/C1=C2/[N]3[Co+]456([OH])<-[N]7=C1[C@@H](CCC(N)=O)C(C)(C)/C7=C/C1=[N]->4C(=C(/C)C4=[N]->5[C@@](C)([C@H]3[C@H](CC(N)=O)[C@@]2(C)CCC(=O)NC[C@@H](C)OP(=O)([O-])O[C@H]2[C@@H](O)[C@@H](n3c[n]->6c5cc(C)c(C)cc53)O[C@@H]2CO)[C@@](C)(CC(N)=O)[C@@H]4CCC(N)=O)/[C@@](C)(CC(N)=O)[C@@H]1CCC(N)=O
cell viability (%): 95.8
--
compound: CN(C)CCCC1(c2ccc(F)cc2)OCc2cc(C#N)ccc21 (stereo unspecified)
cell viability (%): 90
--
compound: N[S+](=O)([O-])c1ccc(Nc2nc(OCC3CCCCC3)c3[nH]cnc3n2)cc1
cell viability (%): 115
--
compound: CCN(CC)CCNC(=O)c1c(C)[nH]c(/C=C2\C(=O)Nc3ccc(F)cc32)c1C
cell viability (%): 110

----------
Reported cell viability values for a set of compounds
Test system: P12-Ichikawa
test: cell viability relative to DMSO control; higher = less cytotoxic
stated-conditions: RPMI 5 mM glucose + 10% dialyzed FBS; 48 h; 0.19 µM

compound: O=C(/C=C/c1ccc(/C=C/C(=O)Nc2ccc(C3=NCCN3)cc2)cc1)Nc1ccc(C2=NCCN2)cc1
unit-text: %
cell viability: 115
//
compound: C[C@]1(O)CC(C1)C2=NC(=C3[N]2C=CN=C3N)C4=CC5=C(C=C4)C=CC(=N5)C6=CC=CC=C6 (stereo not drawn)
unit-text: %
cell viability: 94.5
//
compound: Cc1ccc([C@@H]2O[C@H](CO)[C@@H](O)[C@H](O)[C@H]2O)cc1Cc1ccc(-c2ccc(F)cc2)s1
unit-text: %
cell viability: 132
//
compound: CO[C@H]1CCC(O[C@H]2C[C@H]([C@]3(C)CC[C@]4(C[C@H](O)[C@@H](C)[C@@H]([C@@H](C)/C=C(\C)C(=O)[C@H](C)C[C@H](C)C(=O)[O-])O4)O3)O[C@]3(O[C@@H]([C@H]4O[C@@](O)(CO)[C@H](C)C[C@@H]4C)C[C@@H]3C)[C@@H]2C)O[C@@H]1C (stereo partly drawn)
unit-text: %
cell viability: 119
//
compound: C[C@@H]1CC[C@@]2(CC[C@]3(C)\C(=C/C[C@@H]4[C@@]5(C)CC[C@H](O)C(C)(C)[C@@H]5CC[C@@]34C)[C@@H]2[C@H]1C)C(O)=O
unit-text: %
cell viability: 114
//
compound: COc1c(Cl)cc2c([nH]c3cnccc32)c1NC(=O)c1cccnc1C
unit-text: %
cell viability: 106
//
compound: N[S+](=O)([O-])c1ccc(Nc2nc(OCC3CCCCC3)c3[nH]cnc3n2)cc1
unit-text: %
cell viability: 108
//
compound: Clc2cccc(Cl)c2\N=C1/NCCN1
unit-text: %
cell viability: 121
